Header: pKi / Carbonic anhydrase 9 (Homo sapiens) / multiple publications
Give bare numbers, as −log10 of the molar value.

Sample records with pKi:
>>> df
                                   molecule  measurement_name  measurement
0  COC(=O)c1cn(-c2ccc(S(N)(=O)=O)cc2)nc1-c1ccc(Cl)cc1               pKi         7.77
1  CC(C)c1nc(SCC(=O)c2ccccc2)nc(Nc2cccc(S(N)(=O)=O)c2)c1C#N               pKi         7.03

Would you mind listing pKi for each of the following molecules?
1. Nc1c(C(=O)N/N=C2\C(=O)Nc3ccc(Br)cc32)cnn1-c1ccc(S(N)(=O)=O)cc1
2. CCOC(=O)c1ccc(NC(=O)Nc2ccc(OS(N)(=O)=O)cc2)cc1

1: 8.03; 2: 8.10

Would you mind listing pKi for each of the following molecules?
1. NS(=O)(=O)c1ccc(-n2cc(C(=O)c3ccc(Br)cc3)nn2)cc1
2. O=C(CN1C(=O)c2ccccc2S1(=O)=O)c1ccc(F)cc1
3. Cc1ccc2oc(=O)c(S(N)(=O)=O)cc2c1
4. NS(=O)(=O)c1ccc(-c2cc3ccccc3[nH]2)cc1
5. COc1ccc(/C=C/C(=O)Nc2ccc(S(N)(=O)=O)cc2)c(F)c1
6. CC(=O)N1N=C(c2ccc(OS(N)(=O)=O)cc2)CC1c1ccc(C(F)(F)F)cc1 (stereo not drawn)
7. O=C(/C=C/C(=O)Nc1ccc2c(c1)B(O)OC2)Nc1ccc2c(c1)B(O)OC2
8. NS(=O)(=O)c1cccc2ccccc12

1: 7.35; 2: 7.64; 3: 7.32; 4: 6.91; 5: 7.95; 6: 7.53; 7: 5.83; 8: 7.52

Would you mind listing pKi for each of the following molecules?
1. COc1ccc(-n2nc(C)c3c(=O)oc4ccccc4c32)cc1
2. Cn1nc(S(N)(=O)=O)s/c1=N\C(=O)c1c(F)c(F)cc(F)c1F
3. N/C(=N\S(=O)(=O)c1ccccc1SCc1ccccc1)NNc1nc(Cl)nc(Nc2ccc(S(N)(=O)=O)cc2)n1
4. CC(NOCc1ccc(Cl)cc1)C(=O)NO (stereo not drawn)

1. 7.40
2. 7.98
3. 7.40
4. 5.04

Would you mind listing pKi for each of the following molecules?
1. O=Cc1ccc(OCc2cn(CCCOc3ccc4ccc(=O)oc4c3)nn2)cc1
2. O=c1[nH]c2ccc(Cl)cc2c(=O)n1O
3. CCOc1nonc1S(N)(=O)=O
4. O=S1(=O)C=Cc2cc(-c3nnnn3-c3ccc(F)c(Cl)c3)ccc2O1

1. 6.77
2. 7.32
3. 8.18
4. 8.16

pKi lookup needed for `CCCCn1cc(-c2cc(C(=O)OC)[nH]n2)c2ccccc21` , thanks. 5.10
